From: paper PMC3411462

# assay.overview: Brain and plasma concentrations in mice after intraperitoneal administration (LC-MS-MS), non-compartmental analysis
# Assay type: in vivo
# measurement.setup: male, Swiss-Webster, mouse, brain and plasma, intraperitoneal; postmortem samples, 13–18 minutes after 39 mg kg^-1 GNTI·2CF3CO2H; read-out: Cmax,brain/Cmax,p
result.type: Kp
Returns: the value as a bare number; no unit string appended.

Enquiry: I would be grateful if you could share the reported Kp for "N=C(N)Nc1ccc2[nH]c3c(c2c1)C[C@@]1(O)[C@H]2Cc4ccc(O)c5c4[C@@]1(CCN2CC1CC1)[C@H]3O5" .
Return: 0.0085

----------
# assay.overview: Brain and plasma concentrations in mice after intraperitoneal administration (LC-MS-MS), non-compartmental analysis
# Assay type: in vivo
# measurement.setup: male, Swiss-Webster (Crl:CFW(SW)), mouse, brain, intraperitoneal, 10 mg/kg, 4 h, 10 mg/kg; read-out: Conc (brain, NCA input)
result.type: concentration at 4 h (ng/mL)
Numeric answer only, unit ng/mL assumed.

Enquiry: I would be grateful if you could share the reported concentration at 4 h for CC(C)[C@@H](CN1CC[C@@](C)(c2cccc(O)c2)[C@@H](C)C1)NC(=O)[C@H]1Cc2ccc(O)cc2CN1 [JDTic] .
Return: 62.4

----------
# assay.overview: Brain and plasma concentrations in mice after intraperitoneal administration (LC-MS-MS), non-compartmental analysis
# Assay type: in vivo
# measurement.setup: male, Swiss-Webster, mouse, plasma, ip, 10 mg/kg, 24 h, 10 mg/kg i.p.; <MRC substituted by MRC/2; read-out: mean (plasma)
# Protocol: Doses are reported by weight of the specified salt. […] Body mass was measured to ±0.1 g. Mice were sacrificed by cervical dislocation, then decapitated for collection of brain and blood samples. […] Drug concentrations (ng mL^-1) refer to the free base, and were measured by liquid chromatography-tandem mass spectrometry (LC-MS-MS) as described previously. […] Compounds were detected in positive ion mode, tuned to the mass transition with the largest intensity. […]
Below: a set of entries, each annotated with reported concentration at 24 h.
Numeric answer only, unit ng/mL assumed.

Enquiry: I would be grateful if you could share the reported concentration at 24 h for "CC(C)[C@@H](CN1CC[C@@](C)(c2cccc(O)c2)[C@@H](C)C1)NC(=O)[C@H]1Cc2ccc(O)cc2CN1" .
Return: 3

Enquiry: I would be grateful if you could share the reported concentration at 24 h for "Oc1ccc2c3c1O[C@H]1c4[nH]c5c(c4C[C@@]4(O)[C@@H](C2)N(CC2CC2)CC[C@]314)C[C@@]1(O)[C@H]2Cc3ccc(O)c4c3[C@@]1(CCN2CC1CC1)[C@H]5O4" .
Return: 42

We next turn to a different molecule, shown below.
Enquiry: I would be grateful if you could share the reported concentration at 24 h for "N=C(N)Nc1ccc2[nH]c3c(c2c1)C[C@@]1(O)[C@H]2Cc4ccc(O)c5c4[C@@]1(CCN2CC1CC1)[C@H]3O5" .
Return: 9

----------
# assay.overview: Brain and plasma concentrations in mice after intraperitoneal administration (LC-MS-MS), non-compartmental analysis
# Format: in vivo
# measurement.setup: male, Swiss-Webster, mouse, plasma, ip, 10 mg/kg, 2 h, 10 mg/kg i.p., individual mice; read-out: [drug],plasma (free base equivalent)
Below: a set of entries, each annotated with reported concentration at 2 h.
Numeric answer only, unit ng/mL assumed.

Enquiry: I would be grateful if you could share the reported concentration at 2 h for "CC(C)[C@@H](CN1CC[C@@](C)(c2cccc(O)c2)[C@@H](C)C1)NC(=O)[C@H]1Cc2ccc(O)cc2CN1" .
Return: 42.3

We next turn to a different compound, shown below.
Enquiry: I would be grateful if you could share the reported concentration at 2 h for "Oc1ccc2c3c1O[C@H]1c4[nH]c5c(c4C[C@@]4(O)[C@@H](C2)N(CC2CC2)CC[C@]314)C[C@@]1(O)[C@H]2Cc3ccc(O)c4c3[C@@]1(CCN2CC1CC1)[C@H]5O4" .
Return: 366
